# System: A431 (Epidermoid)
# ASSAY NAME: Tumor cell proliferation assay (MTT), A431
# Assay type: cell-based
# CONDITION SUMMARY: Homo sapiens, A-431, read-out: IC50 in vitro anti-proliferative activity
pIC50: −log10 of the molar value.

SMILES TEXT: COc1cc2nccc(Oc3ccc(NC(=O)NC4CC4)c(Cl)c3)c2cc1C(N)=O
pIC50: 4.51

----------
# TARGET OF ASSAY: VEGFR3 (FLT4) (Homo sapiens, UniProt P35916)
# Sequence (P35916 25-1363): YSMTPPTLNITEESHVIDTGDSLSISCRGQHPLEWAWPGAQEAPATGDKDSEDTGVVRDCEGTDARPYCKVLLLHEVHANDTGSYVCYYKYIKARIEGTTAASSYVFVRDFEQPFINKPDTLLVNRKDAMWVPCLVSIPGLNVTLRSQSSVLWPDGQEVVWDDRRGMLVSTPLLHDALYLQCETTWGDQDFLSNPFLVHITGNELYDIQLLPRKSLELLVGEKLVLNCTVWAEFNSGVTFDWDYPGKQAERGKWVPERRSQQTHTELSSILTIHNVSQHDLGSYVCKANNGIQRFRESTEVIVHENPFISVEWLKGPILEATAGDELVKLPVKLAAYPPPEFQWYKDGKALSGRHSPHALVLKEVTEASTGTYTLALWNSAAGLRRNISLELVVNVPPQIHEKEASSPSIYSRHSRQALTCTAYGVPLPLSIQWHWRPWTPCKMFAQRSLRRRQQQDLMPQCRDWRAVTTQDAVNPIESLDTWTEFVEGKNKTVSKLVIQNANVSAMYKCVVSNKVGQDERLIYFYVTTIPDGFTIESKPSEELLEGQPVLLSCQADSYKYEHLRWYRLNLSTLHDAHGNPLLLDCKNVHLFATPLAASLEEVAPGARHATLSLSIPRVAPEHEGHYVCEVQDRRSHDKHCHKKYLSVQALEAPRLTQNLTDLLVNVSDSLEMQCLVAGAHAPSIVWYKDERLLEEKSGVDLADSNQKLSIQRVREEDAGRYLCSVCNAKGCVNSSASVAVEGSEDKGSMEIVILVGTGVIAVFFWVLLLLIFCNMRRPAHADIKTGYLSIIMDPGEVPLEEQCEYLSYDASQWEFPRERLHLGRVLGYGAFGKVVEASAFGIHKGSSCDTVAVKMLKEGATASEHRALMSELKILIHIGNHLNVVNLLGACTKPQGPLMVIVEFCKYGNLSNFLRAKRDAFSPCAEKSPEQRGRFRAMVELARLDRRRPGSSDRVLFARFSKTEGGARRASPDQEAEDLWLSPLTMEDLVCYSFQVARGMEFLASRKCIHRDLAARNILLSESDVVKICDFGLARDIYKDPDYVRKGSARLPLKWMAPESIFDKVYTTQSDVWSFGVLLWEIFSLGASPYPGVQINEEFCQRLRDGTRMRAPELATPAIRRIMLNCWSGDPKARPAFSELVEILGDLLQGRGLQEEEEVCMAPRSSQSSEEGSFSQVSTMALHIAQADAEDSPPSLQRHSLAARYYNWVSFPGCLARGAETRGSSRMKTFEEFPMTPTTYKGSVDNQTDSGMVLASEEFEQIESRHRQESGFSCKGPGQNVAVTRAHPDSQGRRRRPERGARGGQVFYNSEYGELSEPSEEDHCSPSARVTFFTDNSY
pKi: −log10 of the molar value.
MEASUREMENT KIND: pKi

SMILES TEXT: COc1cc2nccc(Oc3ccc(NC(=O)NC4CC4)c(Cl)c3)c2cc1C(N)=O
TARGET OF ASSAY: VEGFR3 (FLT4) (Homo sapiens, UniProt P35916)
MEASUREMENT KIND: pKi
MEASURED RESULT: 9.15
